Assay target: T1, human parathyroid hormone receptor 1, wild-type (hPTHR-1) (human, UniProt Q03431 27-593)
T1 sequence (looked up): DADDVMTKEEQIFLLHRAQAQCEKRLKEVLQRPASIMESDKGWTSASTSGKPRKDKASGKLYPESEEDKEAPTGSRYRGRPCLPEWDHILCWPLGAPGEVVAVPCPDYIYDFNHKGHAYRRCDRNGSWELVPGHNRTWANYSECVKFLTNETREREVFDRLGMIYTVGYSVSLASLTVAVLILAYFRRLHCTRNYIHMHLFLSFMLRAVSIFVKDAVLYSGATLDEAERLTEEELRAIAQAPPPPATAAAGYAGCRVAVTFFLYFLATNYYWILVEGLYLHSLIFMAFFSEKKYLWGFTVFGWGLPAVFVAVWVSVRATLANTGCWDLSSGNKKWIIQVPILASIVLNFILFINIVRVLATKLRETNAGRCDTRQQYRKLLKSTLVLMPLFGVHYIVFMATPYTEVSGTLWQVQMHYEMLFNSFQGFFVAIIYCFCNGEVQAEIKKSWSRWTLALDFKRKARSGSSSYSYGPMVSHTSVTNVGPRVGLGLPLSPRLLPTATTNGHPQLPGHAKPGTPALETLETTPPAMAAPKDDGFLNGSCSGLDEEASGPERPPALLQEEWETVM
Assay: cell-based or functional assay
Non-standard residues stand in square brackets, D forms with d. No end group written: not given here. β3hW = N[C@H](CC(=O)O)Cc1c[nH]c2ccccc12; β3hE = N[C@@H](CCC(=O)O)CC(=O)O; β3hF = N[C@H](CC(=O)O)Cc1ccccc1; β3hK = NCCCC[C@H](N)CC(=O)O; β3hM = CSCC[C@H](N)CC(=O)O; β3hD = NC(CC(=O)O)CC(=O)O
Quantity name: cAMP EC50 (pM)
Return type: number; implicit unit pM.

Below, each entry is followed by its recorded cAMP EC50 result.
>>> experimental_result("SVSEIQLMHNLGKHLNSMERVEWLRKKLQDVQNF-NH2 (not fully specified (residue 32); printed as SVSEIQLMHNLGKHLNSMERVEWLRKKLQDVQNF-NH2; also: three β3 residues, positions not given here in text, also called α/β-peptide B3) [B3]")
110
>>> experimental_result("SVSEIQLMHNLGKHLNSMERVEWLRKKLQDVHNF (C-terminal amide; three β3 residues with native side chains, αααβ pattern; bold marks lost in text (inferred 23, 27, 31)) [A3]")
290
>>> experimental_result("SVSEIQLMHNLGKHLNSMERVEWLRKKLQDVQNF-NH2 (not fully specified (residues 20, 24, 28, 32); printed as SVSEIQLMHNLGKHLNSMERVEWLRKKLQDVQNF-NH2; also: five β3 residues, positions not given here in text, also called α/β-peptide B5) [B5]")
110
>>> experimental_result("SVSEIQLMHNLGKWLNSMERVEWLRKKLQDVHNF-NH2 (not fully specified (residue 14); printed as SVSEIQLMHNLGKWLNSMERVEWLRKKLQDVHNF-NH2; also: seven β3 residues, positions not given here in text, also called α/β-peptide D7) [D7]")
390

// switching to the query binder
Ask: What value of measured cAMP EC50 is listed for SVSEIQLMHNLGK[β3hW]LNS[β3hM]ERV[β3hE]WLR[β3hK]KLQ[β3hD]VHN[β3hF]-NH2 (also called α/β-peptide D6) [D6] ?
Result: 130
